# TARGET_SYSTEM: T1, Recombinant human FcγRI/CD64, extracellular domain, glycosylated (human, UniProt P12314 16-292)
# T1 construct: extracellular domain; also called FcγRIa; FcγRIa-FITC
# T1 sequence (P12314 16-292): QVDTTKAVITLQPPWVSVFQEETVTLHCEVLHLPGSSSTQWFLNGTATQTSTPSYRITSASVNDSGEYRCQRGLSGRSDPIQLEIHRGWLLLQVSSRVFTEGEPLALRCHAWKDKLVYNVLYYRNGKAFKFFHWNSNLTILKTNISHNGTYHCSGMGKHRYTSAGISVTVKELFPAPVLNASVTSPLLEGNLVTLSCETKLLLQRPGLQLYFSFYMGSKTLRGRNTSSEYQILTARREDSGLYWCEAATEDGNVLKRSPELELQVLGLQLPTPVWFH
# TEST_DETAILS: flow cytometry of spheroplasts displaying the Fc, labelled with FcγRIa-FITC [panel b]
EXPERIMENTAL_READOUT: M (mean fluorescence intensity)

binder="Fc49 (C229R, E382V, M428I), aglycosylated Fc mutant (other, also called aglycosylated-Fc49) DKTHTCPPRPAPELLGGPSVFLFPPKPKDTLMISRTPEVTCVVVDVSHEDPEVKFNWYVDGVEVHNAKTKPREEQYNSTYRVVSVLTVLHQDWLNGKEYKCKVSNKALPAPIEKTISKAKGQPREPQVYTLPPSRDELTKNQVSLTCLVKGFYPSDIAVEWVSNGQPENNYKTTPPVLDSDGSFFLYSKLTVDKSRWQQGNVFSCSVIHEALHNHYTQKSLSLSPGK" experimental_result=409
binder="Fc12 (N361D, E382V, M428I), aglycosylated Fc mutant (other) DKTHTCPPCPAPELLGGPSVFLFPPKPKDTLMISRTPEVTCVVVDVSHEDPEVKFNWYVDGVEVHNAKTKPREEQYNSTYRVVSVLTVLHQDWLNGKEYKCKVSNKALPAPIEKTISKAKGQPREPQVYTLPPSRDELTKDQVSLTCLVKGFYPSDIAVEWVSNGQPENNYKTTPPVLDSDGSFFLYSKLTVDKSRWQQGNVFSCSVIHEALHNHYTQKSLSLSPGK" experimental_result=307
binder="Fc23 (H310Y, K322R, T350A, E382V, S426T, S442P), aglycosylated Fc mutant (other) DKTHTCPPCPAPELLGGPSVFLFPPKPKDTLMISRTPEVTCVVVDVSHEDPEVKFNWYVDGVEVHNAKTKPREEQYNSTYRVVSVLTVLYQDWLNGKEYKCRVSNKALPAPIEKTISKAKGQPREPQVYALPPSRDELTKNQVSLTCLVKGFYPSDIAVEWVSNGQPENNYKTTPPVLDSDGSFFLYSKLTVDKSRWQQGNVFSCTVMHEALHNHYTQKSLPLSPGK" experimental_result=335
binder="Fc20 (N361D, F372L, E382V, M428I), aglycosylated Fc mutant (other) DKTHTCPPCPAPELLGGPSVFLFPPKPKDTLMISRTPEVTCVVVDVSHEDPEVKFNWYVDGVEVHNAKTKPREEQYNSTYRVVSVLTVLHQDWLNGKEYKCKVSNKALPAPIEKTISKAKGQPREPQVYTLPPSRDELTKDQVSLTCLVKGLYPSDIAVEWVSNGQPENNYKTTPPVLDSDGSFFLYSKLTVDKSRWQQGNVFSCSVIHEALHNHYTQKSLSLSPGK" experimental_result=295
